Source of measurements: patent US9624269B2

target: human BACE1 (rhBACE1) (Homo sapiens, UniProt P56817); assay: Caliper BACE1 activity assay (microfluidic capillary electrophoresis); assay type: biochemical; set-up: containing human BACE1 (extracellular domain); conditions: 12 nM rhBACE1, 1 μM FAM-substrate, pH 4.4
Sequence (P56817 46-457 limits assumed): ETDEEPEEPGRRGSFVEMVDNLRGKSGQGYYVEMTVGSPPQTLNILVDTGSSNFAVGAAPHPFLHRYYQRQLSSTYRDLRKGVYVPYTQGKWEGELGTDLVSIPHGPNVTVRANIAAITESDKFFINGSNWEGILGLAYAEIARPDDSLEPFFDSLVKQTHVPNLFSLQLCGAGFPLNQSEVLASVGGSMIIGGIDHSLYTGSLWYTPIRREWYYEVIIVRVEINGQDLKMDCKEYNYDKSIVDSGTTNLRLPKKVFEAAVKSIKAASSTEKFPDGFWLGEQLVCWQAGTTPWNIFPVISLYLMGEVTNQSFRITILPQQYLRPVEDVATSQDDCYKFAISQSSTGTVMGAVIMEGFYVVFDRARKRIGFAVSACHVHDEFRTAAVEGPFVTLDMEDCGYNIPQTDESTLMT
Positions of bridges follow the written chain, without caps; N, C: chain ends. Residues, ends and D or L forms follow the SMILES beside them.
measurement.label: IC50

INSERT INTO measurements (compound, measurement_label, endpoint_result) VALUES
  ('CC[C@H](C)[C@H](NC(=O)[C@H](Cc1c[nH]cn1)NC(=O)[C@H](CCC(=O)O)NC(=O)[C@H](CCC(=O)O)NC(=O)[C@H](CC(N)=O)NC(C)=O)C(=O)N[C@@H](Cc1ccc(O)cc1)C(=O)N[C@H]1CSSC[C@@H](C(=O)NCC(N)=O)NC(=O)CNC(=O)[C@H](CC(C)C)NC(=O)CNC(=O)[C@H](CC(C)C)NC(=O)[C@H](CC(C)C)NC(=O)[C@H](CCCNC(=N)N)NC1=O [BACE017] (Ac-NEEHIYCRLLGLGCG-NH2; disulfide 7-14)', 'IC50', '> 10 µM'),
  ('CC[C@H](C)[C@@H]1NC(=O)CNC(=O)[C@H](CC(C)C)NC(=O)[C@H](CC(C)C)NC(=O)[C@H](CCCNC(=N)N)NC(=O)[C@@H](NC(=O)[C@H](Cc2ccc(O)cc2)NC(=O)[C@H](CCSC)NC(=O)[C@H](CO)NC(=O)[C@H](CCC(=O)O)NC(=O)[C@H](CCC(=O)O)NC(C)=O)CSSC[C@@H](C(=O)NCC(N)=O)NC(=O)CNC1=O [BACE029] (Ac-EESMYCRLLGIGCG-NH2; disulfide 6-13)', 'IC50', '0.013 µM'),
  ('CC[C@H](C)[C@@H]1NC(=O)CNC(=O)[C@H](CC(C)C)NC(=O)[C@H](CC(C)C)NC(=O)[C@H](C)NC(=O)[C@@H](NC(=O)[C@H](Cc2ccc(O)cc2)NC(=O)[C@H](CCSC)NC(=O)[C@H](CO)NC(=O)[C@H](CCC(=O)O)NC(C)=O)CSSC[C@@H](C(=O)NCC(N)=O)NC(=O)CNC1=O [BACE057] (Ac-ESMYCALLGIGCG-NH2; disulfide 5-12)', 'IC50', '> 10 µM');
